test name: BSK_CASM3C_Proliferation: Cell Proliferation Assessment in the BioMAP Diversity Plus: CASM3C Assay (AID 2283047);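 further: sulforhodamine B total protein stain as relative cell number at 560 nm; sub-confluent cells exposed 48 h before staining; fitted both ways against DMSO so gain or loss of cell number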
recorded conditions: primary human coronary artery smooth muscle cells
Active and inactive are the calls of the source. How the source made its calls: active means hit-call score of the fitted dose curve at least 0.9, where 1 is the maximum; inactive means score below 0.9.
Labels: active, inactive

[[record]]
compound = "CC(Cl)COP(=O)(OCC(C)Cl)OCC(C)Cl (stereo unspecified)"
class_assignment = "active"

[[record]]
compound = "O=C1CCCCCCCCCCCN1"
class_assignment = "inactive"

[[record]]
compound = "CCNc1nc(NC(C)(C)C)nc(OC)n1"
class_assignment = "inactive"

[[record]]
compound = "CC=C(C)C(C)=O"
class_assignment = "inactive"

[[record]]
compound = "C1CNCCN1"
class_assignment = "inactive"

[[record]]
compound = "CC1(C)CC(O)CC(C)(C)N1[O]"
class_assignment = "inactive"

[[record]]
compound = "CC1=CC=C(C(C)C)CC1"
class_assignment = "inactive"

[[record]]
compound = "CCCCCCOC(=O)CCCCC(=O)OCCCCCC"
class_assignment = "inactive"

[[record]]
compound = "c1ccc2c(c1)[nH]c1ccccc12"
class_assignment = "inactive"

[[record]]
compound = "CC(c1cc(C(C)(C)C)cc(C(C)(C)C)c1O)c1cc(C(C)(C)C)cc(C(C)(C)C)c1O"
class_assignment = "inactive"

[[record]]
compound = "Oc1c(Cl)cc(Cl)c(Cl)c1Cl"
class_assignment = "inactive"

[[record]]
compound = "CCCCCCCCCCCC(=O)N(C)CC(=O)O"
class_assignment = "inactive"

[[record]]
compound = "CCCCCCCO"
class_assignment = "inactive"

[[record]]
compound = "CCOC(=O)C1=NOC(c2ccccc2)(c2ccccc2)C1"
class_assignment = "inactive"

[[record]]
compound = "C=CCCCCCCCCC=O"
class_assignment = "inactive"

[[record]]
compound = "CCCC(C)C(=O)OCC (stereo unspecified)"
class_assignment = "inactive"

[[record]]
compound = "C=CC(=O)OCCCCCCCC(C)C"
class_assignment = "inactive"

[[record]]
compound = "CCc1cccc(C)c1N(C(=O)CS(=O)(=O)O)C(C)COC (stereo unspecified)"
class_assignment = "inactive"

[[record]]
compound = "CC/C=C\\C/C=C\\C/C=C\\CCCCCCCC(=O)OC"
class_assignment = "active"

[[record]]
compound = "C=CC(=O)NC(C)(C)C"
class_assignment = "inactive"

[[record]]
compound = "c1ccc2sc(SSN3CCOCC3)nc2c1"
class_assignment = "active"

[[record]]
compound = "CCCCCCC=O"
class_assignment = "active"

[[record]]
compound = "O=C(Cl)c1c(Cl)c(Cl)c(C(=O)Cl)c(Cl)c1Cl"
class_assignment = "inactive"

[[record]]
compound = "CCN1CN(CC)CN(CC)C1"
class_assignment = "inactive"

[[record]]
compound = "CCC1(C)C(=O)N(Cl)C(=O)N1Cl (stereo unspecified)"
class_assignment = "inactive"

[[record]]
compound = "COc1ccc(C(=O)c2ccccc2)c(O)c1"
class_assignment = "inactive"

[[record]]
compound = "CCOC(=O)/C=C\\C(=O)OCC"
class_assignment = "inactive"

[[record]]
compound = "COC(OC)(C(=O)c1ccccc1)c1ccccc1"
class_assignment = "inactive"

[[record]]
compound = "C=CC(=O)OCCCCCCOC(=O)C=C"
class_assignment = "active"

[[record]]
compound = "Clc1cc(Cl)c(Cl)c(Cl)c1Cl"
class_assignment = "inactive"

[[record]]
compound = "O=C1CCCCCCCCCCC1"
class_assignment = "inactive"

